- SYSTEM_TESTED: endothelin receptor (smooth muscle A7r5 cells derived from rat aorta) (Rattus norvegicus)
- Construct: Smooth muscle A7r5 cells derived from rat aorta; endogenous in cells
- METHOD_NOTES: Inhibitory effect on the binding of 125I-endothelin-1 to its receptor (rat aorta smooth muscle A7r5 cells)
- TEST_SETTINGS: 25 pM 125I-endothelin-1, 37° C., 1 hr, read-out: IC50 binding: 50% inhibition of the specific binding of 125I-endothelin-1 to its receptor
pIC50: −log10 of the molar value.
ENDPOINT: pIC50

// known answers, use as guide
CC1(C)CC[C@]2(C(=O)O)CC[C@]3(COC(=O)/C=C/c4cc(O)ccc4N)C(=CCC4[C@@]5(C)CCC(=O)C(C)(C)C5CC[C@]43C)[C@@H]2C1 (stereo partly drawn)    7.62
COC(=O)/C=C/C(=O)Nc1ccc(O)cc1/C=C/C(=O)OC[C@@]12CC[C@@]3(C(=O)O)CCC(C)(C)C[C@H]3C1=CCC1[C@@]3(C)CCC(=O)C(C)(C)C3CC[C@]12C (stereo partly drawn)    8.30
CC1(C)CC[C@]2(C(=O)O)CC[C@]3(COC(=O)/C=C/c4ccc(O)c(O)c4)C(=CCC4[C@@]5(C)CCC(=O)C(C)(C)C5CC[C@]43C)[C@@H]2C1 (stereo partly drawn) [Compound 50-235, reference compound]    7.12
CC1(C)CC[C@]2(C(=O)O)CC[C@]3(COC(=O)/C=C/c4cc(O)ccc4NC(=O)/C=C/C(=O)O)C(=CCC4[C@@]5(C)CCC(=O)C(C)(C)C5CC[C@]43C)[C@@H]2C1 (single isomer, unassigned) [Compound 1b]    9.30
CC1(C)CC[C@]2(C(=O)O)CC[C@]3(COC(=O)/C=C/c4cc(O)ccc4NC(=O)/C=C\C(=O)O)C(=CCC4[C@@]5(C)CCC(=O)C(C)(C)C5CC[C@]43C)[C@@H]2C1 (stereo partly drawn)    8.47
CC1(C)CC[C@]2(C(=O)O)CC[C@]3(COC(=O)/C=C/c4cc(O)ccc4NS(=O)(=O)O)C(=CCC4[C@@]5(C)CCC(=O)C(C)(C)C5CC[C@]43C)[C@@H]2C1 (stereo partly drawn)    8.54

a: CC1(C)CC[C@]2(C(=O)O)CC[C@]3(COC(=O)/C=C/c4cc(O)ccc4NC(=O)C(=O)O)C(=CCC4[C@@]5(C)CCC(=O)C(C)(C)C5CC[C@]43C)[C@@H]2C1 (stereo partly drawn)
b: CC1(C)CC[C@]2(C(=O)O)CC[C@]3(COC(=O)/C=C/c4cc(O)ccc4NC(=O)/C=C/C(=O)O)C(=CCC4[C@@]5(C)CCC(=O)C(C)(C)C5CC[C@]43C)[C@@H]2C1 (single isomer, unassigned) [Compound 1c]
c: CC1(C)CC[C@]2(C(=O)O)CC[C@]3(COC(=O)/C=C/c4cc(O)ccc4NC(=O)CCCC(=O)O)C(=CCC4[C@@]5(C)CCC(=O)C(C)(C)C5CC[C@]43C)[C@@H]2C1 (stereo partly drawn)
Place the items in sequence of falling pIC50. As an answer, provide the labels arranged in the order called for. b, a, c

###

- SYSTEM_TESTED: endothelin receptor (smooth muscle A7r5 cells derived from rat aorta) (Rattus norvegicus, UniProt P26684)
- Construct: Smooth muscle A7r5 cells derived from rat aorta; endogenous in cells; host or cells: A7r5 (rat aortic smooth muscle)
- Sequence (P26684 21-426): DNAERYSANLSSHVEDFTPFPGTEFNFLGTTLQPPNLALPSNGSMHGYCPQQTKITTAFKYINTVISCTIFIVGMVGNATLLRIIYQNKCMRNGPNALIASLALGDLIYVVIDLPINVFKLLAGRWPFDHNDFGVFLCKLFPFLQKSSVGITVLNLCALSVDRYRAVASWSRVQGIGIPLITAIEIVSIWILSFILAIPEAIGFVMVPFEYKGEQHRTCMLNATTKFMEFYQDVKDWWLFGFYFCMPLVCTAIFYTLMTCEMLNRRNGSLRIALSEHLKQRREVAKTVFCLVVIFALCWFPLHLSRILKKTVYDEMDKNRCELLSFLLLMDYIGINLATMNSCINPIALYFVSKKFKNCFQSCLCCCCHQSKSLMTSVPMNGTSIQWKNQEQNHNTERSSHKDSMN
- METHOD_NOTES: Inhibitory effect on the binding of 125I-endothelin-1 to its receptor (rat aorta smooth muscle A7r5 cells)
- TEST_SETTINGS: 25 pM 125I-endothelin-1, 37° C., 1 hr, read-out: IC50 binding: 50% inhibition of the specific binding of 125I-endothelin-1 to its receptor
ENDPOINT: IC50 (nM)

CC1(C)CC[C@]2(C(=O)O)CC[C@]3(COC(=O)/C=C/c4cc(O)ccc4NCC(=O)O)C(=CCC4[C@@]5(C)CCC(=O)C(C)(C)C5CC[C@]43C)[C@@H]2C1 (stereo partly drawn)    3

P: CC1(C)CC[C@]2(C(=O)O)CC[C@]3(COC(=O)/C=C/c4cc(O)ccc4NC(=O)CCC(=O)O)C(=CCC4[C@@]5(C)CCC(=O)C(C)(C)C5CC[C@]43C)[C@@H]2C1 (stereo partly drawn)
Q: CC1(C)CC[C@]2(C(=O)O)CC[C@]3(COC(=O)/C=C/c4cc(O)ccc4NC(=O)CC(=O)O)C(=CCC4[C@@]5(C)CCC(=O)C(C)(C)C5CC[C@]43C)[C@@H]2C1 (stereo partly drawn)
Compare P and Q by numeric IC50 and name the larger one. Refer to your chosen item by its label in the answer. Q
(Q: 9 nM, P: 3.6 nM)
